Documented pIC50 across a set of compounds
- TEST_TARGET: D(2) dopamine receptor (Rattus norvegicus)
- Sequence (P61169 whole entry): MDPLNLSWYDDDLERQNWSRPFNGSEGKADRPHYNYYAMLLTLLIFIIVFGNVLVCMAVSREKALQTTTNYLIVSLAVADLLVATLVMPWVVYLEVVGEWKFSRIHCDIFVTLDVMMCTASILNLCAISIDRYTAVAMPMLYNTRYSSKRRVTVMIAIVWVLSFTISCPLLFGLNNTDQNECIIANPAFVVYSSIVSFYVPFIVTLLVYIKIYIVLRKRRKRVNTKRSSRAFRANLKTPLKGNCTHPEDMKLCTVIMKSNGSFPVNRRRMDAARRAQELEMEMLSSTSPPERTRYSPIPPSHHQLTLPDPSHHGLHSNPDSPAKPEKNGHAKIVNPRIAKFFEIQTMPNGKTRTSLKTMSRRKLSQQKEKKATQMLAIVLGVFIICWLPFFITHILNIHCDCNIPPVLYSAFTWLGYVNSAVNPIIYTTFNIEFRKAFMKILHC
- PROTOCOL_DESCRIPTION: Inhibition of [3H](-)-sulpiride binding to rat striatum dopamine receptor D2
Note on pIC50: it is the negative log10 of concentration, concentration in mol/L.

Known pIC50 results, listed for orientation:
O=[N+]([O-])c1ccc(CCN2CC[C@H]3c4ccccc4CC[C@H]3C2)cc1: 6.23
CCCCN1CC[C@@H]2c3ccccc3CC[C@H]2C1: 6.41
CCCCN1CCC2=C(CCc3ccccc32)C1: 7.20

Prompt: Reported pIC50, compound c1ccc(CCN2CC[C@H]3c4ccccc4CC[C@H]3C2)cc1 : ____
Response: 6.79

Prompt: // query: CCCCN1CCC2=C(Cc3ccccc32)C1
Response: 7.22

Prompt: // query: CCCCN1CCC2=C(CCCc3ccccc32)C1
Response: 7.21

Prompt: // query: CCCCN1CC[C@H]2c3ccccc3CC[C@H]2C1
Response: 6.84

Prompt: // query: CCCCN1CCC2c3ccccc3CCCC2C1 (configuration not stated)
Response: 6.78

Prompt: // query: COc1ccc(CN2CC[C@H]3c4ccccc4CC[C@H]3C2)cc1
Response: 7.45

Prompt: // query: CC(C)(C)c1ccc(CN2CC[C@H]3c4ccccc4CC[C@H]3C2)cc1
Response: 6.54

Prompt: // query: c1ccc2c(c1)CC[C@H]1CN(C3CCCCC3)CC[C@@H]21
Response: 5.57
